Each record here notes measured growth inhibition.
Test: A549 NSCLC cell proliferation inhibitors – ATP luminescence, human non-small cell lung line, primary screen (AID 371);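 further: compound exposure lasted 72 h before the ATP read; 0% = untreated cell signal and 100% = no luminescence left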
Conditions: at 10 µM, hits give high values
About 280 (8.5%) of roughly 3,300 compounds were called active. This excerpt belongs to a sample that is enriched for actives.
Quick note: give the figure in %, leave out the unit.

Please review the following examples before continuing.
CCOCCSc1nc2c(c(=O)[nH]c(=O)n2C)n1CCCc1ccccc1	20.2
COC(=O)c1ccc(C(=O)OC)c(NC(=O)c2cc3ccccc3o2)c1	5.58
Cc1nc2sc(C)c(C)c2c(=O)o1	3.93
CCOC(=O)N1CC=C2C(C#N)=C(N)C(C#N)(C#N)[C@H](c3cccs3)[C@H]2C1	8.61
COc1ccc2nc(SCC(=O)O)nc(C)c2c1	-2.56

Could you now consider this next molecule?
Query string: Consider the molecule CCc1ccc(NC(=O)CSC2=C(C#N)C(c3ccc4c(c3)OCO4)CC(=O)N2)cc1 (stereo not given) and give its measured growth inhibition.
Result string: 8.25
